Biological target: human APJ receptor (Homo sapiens (Human))
Sequence (P35414 whole entry): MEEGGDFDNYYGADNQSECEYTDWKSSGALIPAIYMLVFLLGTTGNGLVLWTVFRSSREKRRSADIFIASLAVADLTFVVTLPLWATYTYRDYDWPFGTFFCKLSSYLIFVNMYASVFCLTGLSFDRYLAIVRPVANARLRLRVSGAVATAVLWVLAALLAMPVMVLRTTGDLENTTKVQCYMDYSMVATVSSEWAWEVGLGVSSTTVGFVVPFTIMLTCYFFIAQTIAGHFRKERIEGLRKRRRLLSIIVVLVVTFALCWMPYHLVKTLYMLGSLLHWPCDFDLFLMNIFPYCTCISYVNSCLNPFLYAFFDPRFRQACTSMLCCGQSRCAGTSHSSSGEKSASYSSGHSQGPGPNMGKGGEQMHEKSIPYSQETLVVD
Assay: biochemical
Assay type: biochemical
Settings: read-out: Activity hAPJ SPA EC50 IP
I'd appreciate it if you could supply EC50 values for the items below.
Field format: number, assumed nM, no unit text.

Input COc1cnc([C@H](O)[C@@H](C)S(=O)(=O)Nc2nnc(-c3cccnc3)n2-c2c(OC)cccc2OC)cn1 (single isomer, unassigned) . Output EC50: 0.34

Input COc1cccc(OC)c1-n1c(NS(=O)(=O)[C@@H](C)[C@H](O)c2nc(C)c(C)s2)nnc1-c1cncc(C)c1 (single isomer, unassigned) [Example 296.0] . Output EC50: 4.7

Input COc1cccc(-c2nnc(NS(=O)(=O)[C@@H](C)[C@H](OC)c3ncc(C)cn3)n2-c2cccc(C#N)c2)n1 . Output EC50: 31

Input COc1cccc(OC)c1-n1c(NS(=O)(=O)[C@@H](C)[C@H](C)c2cnc(C)cn2)nnc1-c1ccccn1 . Output EC50: 8.2

Input COc1cccc(-c2nnc(NS(=O)(=O)C[C@H](O)c3ccc(F)cn3)n2-c2c(OC)cccc2OC)n1 (single isomer, unassigned) [Example 316.0] . Output EC50: 0.5

Input COc1cccc(-c2nnc(NS(=O)(=O)[C@@H](C)[C@H](OC)c3ncc(C)cn3)n2-c2ccc(F)c(F)c2)n1 . Output EC50: 210

Input COCCOc1cccc(-c2nnc(NS(=O)(=O)[C@@H](C)[C@H](OC)c3ncc(C)cn3)n2-c2c(OC)cccc2OC)n1 . Output EC50: 3.4

Input COc1cccc(-c2nnc(NS(=O)(=O)[C@@H](C)[C@H](OC)c3ncc(C)cn3)n2-c2ccncc2)n1 . Output EC50: 51

Input COc1cccc(-c2nnc(NS(=O)(=O)[C@@H](C)[C@H](OC)c3ncc(C)cn3)n2-c2ccccc2Cl)n1 (atropisomer, axis not shown; (P)) . Output EC50: 2.1

Input COc1cccc(OC)c1-n1c(NS(=O)(=O)[C@H](C)[C@@H](OC[C@H](C)O)c2ncc(C)cn2)nnc1-c1cncc(C)c1 (single isomer, unassigned) [Example 400.0] . Output EC50: 17

Input COc1cccc(-c2nnc(NS(=O)(=O)C[C@H](O)c3ccc(F)cn3)n2-c2c(OC)cccc2OC)n1 (single isomer, unassigned) [Example 317.0] . Output EC50: 0.53

Input COc1cccc(-c2nnc(NS(=O)(=O)[C@@H](C)[C@H](OC)c3ncc(C)cn3)n2-c2ccccc2C(F)(F)F)n1 (atropisomer, axis not shown; (P)) . Output EC50: 2.5

Input COc1cccc(-c2nnc(NS(=O)(=O)[C@@H](C)[C@H](OC)c3ncc(C)cn3)n2-c2ccccc2C)n1 (atropisomer, axis not shown; (P)) . Output EC50: 6.5

Input COc1cccc(-c2nnc(NS(=O)(=O)[C@@H](C)[C@@H](O)c3ncc(C)cn3)n2-c2c(OC)cccc2OC)n1 (single isomer, unassigned) . Output EC50: 0.19

Input COc1cc(C)cc(-c2nnc(NS(=O)(=O)[C@@H](C)[C@H](OC)c3ncc(C)cn3)n2-c2c(OC)cccc2OC)n1 . Output EC50: 4.8

Input COc1cccc(OC)c1-n1c(NS(=O)(=O)[C@@H](C)[C@H](C)c2ncc(F)cn2)nnc1-c1cncc(C)c1 (single isomer, unassigned) [Example 234.0] . Output EC50: 16

Input COc1cccc(-c2nnc(NS(=O)(=O)[C@@H](C)[C@H](C)c3ncc(Cl)cn3)n2C2CCOCC2)n1 . Output EC50: 13

Input COc1cccc(-c2nnc(NS(=O)(=O)[C@@H](C)[C@H](OC)c3ncc(C)cn3)n2-c2cccc(C(F)(F)F)c2)n1 . Output EC50: 12

Input COc1cccc(OC)c1-n1c(NS(=O)(=O)[C@@H](C)[C@H](O)c2ccc(Br)c(C)n2)nnc1-c1cccnc1 (mixture of isomers) . Output EC50: 0.48

Input COc1cccc(-c2nnc(NS(=O)(=O)[C@@H](C)[C@H](OC)c3ncc(C)cn3)n2-c2c(OC(F)F)cccc2OC(F)F)n1 . Output EC50: 0.22

Input CCc1cccc(-c2nnc(NS(=O)(=O)[C@@H](C)[C@H](O)c3ncc(C)cn3)n2-c2c(OC)cccc2OC)n1 . Output EC50: 0.39

Input Cc1cnc([C@@H](C)[C@H](C)S(=O)(=O)Nc2nnc(-c3ccccn3)n2-c2c(F)cccc2F)nc1 . Output EC50: 4.9

Input COc1cccc(OC)c1-n1c(NS(=O)(=O)[C@H](C)[C@@H](OC)c2ncc(Cl)cn2)nnc1-c1cncc(C)c1 (single isomer, unassigned) [Example 560.0] . Output EC50: 0.88

====

Molecular target: human APJ receptor (Homo sapiens (Human))
Test: biochemical
Settings: read-out: Activity hAPJ SPA EC50 IP
Measured Endpoint: EC50 (nM)
Field format: number, assumed nM, no unit text.

Measured EC50 for this entry COc1cccc(OC)c1-n1c(NS(=O)(=O)[C@@H](C)[C@H](C)c2ncc(C)cn2)nnc1-c1ccccn1 [Example 775.0] on human APJ receptor (Homo sapiens (Human)): 2.1

Measured EC50 for this entry COc1cccc(-c2nnc(NS(=O)(=O)[C@@H](C)[C@H](OC)c3ncc(C)cn3)n2-c2cccc(F)c2)n1 [Example 47.0] on human APJ receptor (Homo sapiens (Human)): 8.8

Measured EC50 for this entry COc1cc(-c2nnc(NS(=O)(=O)[C@@H](C)[C@H](C)c3ncc(C)cn3)n2-c2c(OC)cccc2OC)ccn1 [Example 84.0] on human APJ receptor (Homo sapiens (Human)): 5.2

Measured EC50 for this entry COc1cccc(-c2nnc(NS(=O)(=O)C(C)C)n2-c2c(OC)cccc2OC)n1 [Example 100.0] on human APJ receptor (Homo sapiens (Human)): 110

Measured EC50 for this entry CCOc1cccc(-c2nnc(NS(=O)(=O)[C@@H](C)[C@H](C)c3ncc(C)cn3)n2-c2c(OC)cccc2OC)n1 [Example 180.0] on human APJ receptor (Homo sapiens (Human)): 0.068

Measured EC50 for this entry COc1cccc(-c2nnc(NS(=O)(=O)[C@@H](C)[C@H](C)c3ncc(C)cn3)n2-c2c(OC)cccc2OC)n1 [Example 313.0] on human APJ receptor (Homo sapiens (Human)): 0.3

Measured EC50 for this entry COc1cccc(-c2nnc(NS(=O)(=O)[C@@H](C)[C@H](OC)c3ccc(Cl)cn3)n2C2CCOCC2)n1 [Example 841.0] on human APJ receptor (Homo sapiens (Human)): 8.6

Measured EC50 for this entry COc1cccc(-c2nnc(NS(=O)(=O)C[C@H](OC)c3ccc(F)cn3)n2-c2c(OC)cccc2OC)n1 (single isomer, unassigned) [Example 330.0] on human APJ receptor (Homo sapiens (Human)): 0.3

Measured EC50 for this entry CCO[C@@H](c1ncc(Cl)cn1)[C@H](C)S(=O)(=O)Nc1nnc(-c2cncc(C)c2)n1-c1c(OC)cccc1OC (single isomer, unassigned) [Example 612.0] on human APJ receptor (Homo sapiens (Human)): 13

Measured EC50 for this entry COc1cccc(OC)c1-n1c(NS(=O)(=O)[C@@H](C)Cc2ncc(F)cn2)nnc1-c1cncc(C)c1 (single isomer, unassigned) [Example 209.0] on human APJ receptor (Homo sapiens (Human)): 4.9

Measured EC50 for this entry CCc1cccc(-c2nnc(NS(=O)(=O)[C@@H](C)[C@H](C)c3ncc(C)cn3)n2-c2c(OC)cccc2OC)n1 [Example 176.0] on human APJ receptor (Homo sapiens (Human)): 0.15

Measured EC50 for this entry COc1cccc(-c2nnc(NS(=O)(=O)C[C@H](OC)c3ccc(C#N)cc3S(C)(=O)=O)n2-c2c(OC)cccc2OC)n1 (single isomer, unassigned) [Example 485.0] on human APJ receptor (Homo sapiens (Human)): 0.098

Measured EC50 for this entry COc1cc(C)cc(-c2nnc(NS(=O)(=O)[C@@H](C)[C@H](C)c3ncc(F)cn3)n2-c2c(OC)cccc2OC)n1 [Example 177.0] on human APJ receptor (Homo sapiens (Human)): 0.12

====

I'd appreciate it if you could supply EC50 values for the items below.
Molecular target: UniProt P35414
Assay: biochemical
Conditions: read-out: Activity hAPJ SPA EC50 IP
Field format: number, assumed nM, no unit text.

Input COc1cccc(OC)c1-n1c(NS(=O)(=O)[C@H](C)[C@@H](OC)c2ncc(Cl)cn2)nnc1-c1cncc(C)c1 (single isomer, unassigned) [Example 557.0] . Output EC50: 0.31

Input COc1cccc(-c2nnc(NS(=O)(=O)[C@@H](C)[C@H](OC)c3ncc(C)cn3)n2-c2ccc(N(C)C)cc2)n1 [Example 77.0] . Output EC50: 7

Input COc1cccc(OC)c1-n1c(NS(=O)(=O)[C@@H](C)[C@H](O)c2ccc(C#N)cc2)nnc1-c1cncc(C)c1 (single isomer, unassigned) [Example 248.0] . Output EC50: 60

====

Target: human APJ receptor (Homo sapiens (Human))
Test: biochemical
Settings: read-out: Activity hAPJ SPA EC50 IP
Measured Endpoint: EC50 (nM)
Field format: number, assumed nM, no unit text.

Input COc1cccc(OC)c1-n1c(NS(=O)(=O)[C@@H](C)[C@H](O)c2ncc(C)cn2)nnc1-c1cccnc1 [Example 616.0] . Output EC50: 0.46

Input COc1cccc(-c2nnc(NS(=O)(=O)C[C@H](OC)c3ccc(C#N)cc3S(C)(=O)=O)n2-c2c(OC)cccc2OC)n1 (single isomer, unassigned) [Example 486.0] . Output EC50: 0.073

Input COc1cccc(-c2nnc(NS(=O)(=O)[C@@H](C)[C@H](OC)c3ncc(C)cn3)n2-c2c(O)ncnc2OC)n1 (single isomer, unassigned) [Example 739.0] . Output EC50: 1.5
